# tested-on: T1, Lsb1, P53281
# T1 sequence (P53281 45-122, looked up): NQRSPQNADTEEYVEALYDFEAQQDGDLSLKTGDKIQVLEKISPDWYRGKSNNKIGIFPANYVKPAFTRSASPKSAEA
# method: SPOT array
# measurement-parameters: median of control spots 388
Mark fulfilled only when SPOT intensity stays strictly below 30. Values equal to the cut-off are not fulfilled.

Example cases with answers are listed next.
SKAKRPKFLLDLQIK	fulfilled
ISPPASPPPEFDFSK	fulfilled
WRPRIVPILPYITRL	fulfilled
ATNVPVAPPPPPASL	fulfilled
PKRRAPPPVPKKPSS	not fulfilled
LKPPIGRPPKFPKSP	fulfilled
RSRRSSFAYPQQVAI	fulfilled
RPKRRAPPPVPKKPS	not fulfilled

Field: below-cutoff. Rule: recorded SPOT intensity strictly less than 30. Subject: ILARAILTIPRVLDK
fulfilled

In the record for SKIRPTPRKPSRMAT , is SPOT intensity less than 30?
fulfilled

Is SPOT intensity of APKHAPPPVPNETDN strictly below 30?
fulfilled

Is the reported SPOT intensity for RKNRAPPQRPRFNRD strictly below 30?
not fulfilled

I'd appreciate it if you could check whether SSTPTTPERPKRKSG has SPOT intensity smaller than 30.
not fulfilled

State whether 30 exceeds SPOT intensity recorded for QRKSLRRPTLSKPAV .
not fulfilled

Consider NILKRRPLKLEAPSK . Does its SPOT intensity lie strictly below 30?
fulfilled
